Biological target: T1, glucose-dependent insulinotropic peptide (gastric inhibitory polypeptide) receptor (human, UniProt P48546 22-466)
T1 sequence (looked up): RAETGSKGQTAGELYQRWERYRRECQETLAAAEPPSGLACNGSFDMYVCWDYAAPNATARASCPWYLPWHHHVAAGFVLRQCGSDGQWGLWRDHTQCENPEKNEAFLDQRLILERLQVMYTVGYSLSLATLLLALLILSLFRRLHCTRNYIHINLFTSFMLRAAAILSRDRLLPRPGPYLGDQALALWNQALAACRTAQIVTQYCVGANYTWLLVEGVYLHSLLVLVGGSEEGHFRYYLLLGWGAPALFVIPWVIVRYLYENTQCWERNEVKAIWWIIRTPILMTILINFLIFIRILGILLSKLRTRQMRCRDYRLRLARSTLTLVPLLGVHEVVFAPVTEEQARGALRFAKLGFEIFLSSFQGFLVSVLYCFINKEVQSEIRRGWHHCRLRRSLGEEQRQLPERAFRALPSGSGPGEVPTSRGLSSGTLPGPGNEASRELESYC
Assay: cell-based or functional assay
Starred links: 1 amine or outer side, 2 acyl side, 3 side chain; linkers in the order of their positions; H or OH if unused. Non-standard residues stand in square brackets, D forms with d. Groups on a side chain read outwards from the residue. Primed or numbered codes have the meaning given here. No end group written: not given here. *: point of attachment. γGlu = O=C(O)[C@H](CCC(=O)[*:2])N[*:1]; Stearoyl = CCCCCCCCCCCCCCCCCC(=O)*; αMeF = C[C@](N)(Cc1ccccc1)C(=O)O; αMeK = C[C@](N)(CCCCN)C(=O)O; αMeS = C[C@](N)(CO)C(=O)O; PEG2′ = not defined here; Aib = CC(C)(N)C(=O)O
MEASUREMENT_NAME: Primary assay EC50 (cAMP), n1 (µM)
Only the number, expressed in µM, is required.

INPUT: Would you mind telling me what Primary assay EC50 (cAMP), n1 value was observed for H[Aib]EGS[αMeF]TSDV[αMeS]S[αMeF]LEGEAAK([PEG2′-PEG2′-PEG2′-Stearoyl])E[αMeF]IAWVV[αMeK]GG-NH2 [SEQ ID NO 55] ?
OUTPUT: 0.025

INPUT: Return reported Primary assay EC50 (cAMP), n1; argument: H[Aib]EGS[αMeF]TSDV[αMeS]S[αMeF]LEGEAAAEFIK([PEG2′-PEG2′-γGlu-Stearoyl])WVVEGG-NH2 [SEQ ID NO 69]
OUTPUT: 0.0255

INPUT: Using the record for H[Aib]EGS[αMeF]TSDV[αMeS]S[αMeF]LEGEAAEEFIK([PEG2′-PEG2′-γGlu-Stearoyl])WVVEGG-NH2 [SEQ ID NO 66] , report its Primary assay EC50 (cAMP), n1.
OUTPUT: 0.0251
